experiment: qHTS Screen of the MIPE 4.0 Collection Against Ewings Sarcoma (TC71) (AID 1259253); conditions: TC71 Ewing sarcoma viability, CellTiter-Glo, 48 h; series mostly up to 45.8 µM; note: nearly all actives have a fitted effect of over 40% in size
Inconclusive results are not listed. Activity calls are given as the source filed them. Calls come from the whole dose curve; as a rule, active = well fitted inhibition curve with a large enough effect; inconclusive = small, poorly fitted or top-dose-only effect; inactive = no such curve, though single readings can be large or run the other way.
# output must be one of yes (active), no (inactive)

>  <compound>
CN(C)c1nc(Cc2ccc(NC(=O)c3ccc4ccccc4c3)cc2)nc(Cl)c1CC(=O)O

>  <discrete-label>
no

$$$$
>  <compound>
C1Cc2[nH]nc(-c3nn[nH]n3)c2C1

>  <discrete-label>
no

$$$$
>  <compound>
C[C@]1(CO)CN(c2cc(C(=O)Nc3ccc4c(c3)-c3c(c(C(N)=O)nn3-c3ccc(F)cc3)CC4)c(Cl)cn2)C[C@@]1(C)CO

>  <discrete-label>
yes

$$$$
>  <compound>
O=c1[nH]c(=O)n(C2CCCO2)cc1F (stereo not given)

>  <discrete-label>
no

$$$$
>  <compound>
C=CC(=O)Nc1cc2c(Nc3ccc(F)c(Cl)c3)ncnc2cc1OCCCN1CCOCC1

>  <discrete-label>
yes

$$$$

**Q:** Look up the recorded call for "Nc1ccccc1NC(=O)c1ccc(CNc2nccc(-c3cccnc3)n2)cc1" in this test.
**A:** yes

**Q:** Look up the recorded call for "Cc1cc(CN2CCN(c3c(Br)cnc4nc(-c5ccc(N6CCN(C)CC6)cc5)[nH]c34)CC2)no1" in this test.
**A:** yes

**Q:** Look up the recorded call for "Cn1cc(-c2ccncc2)c(-c2ccc(OCc3ccc4ccccc4n3)cc2)n1" in this test.
**A:** yes

**Q:** Look up the recorded call for "CCCCCCCCCC(=O)N[C@@H](Cc1c[nH]c2ccccc12)C(=O)N[C@H](CC(N)=O)C(=O)N[C@@H](CC(=O)O)C(=O)N[C@@H]1C(=O)NCC(=O)N[C@@H](CCCN)C(=O)N[C@@H](CC(=O)O)C(=O)N[C@H](C)C(=O)N[C@@H](CC(=O)O)C(=O)NCC(=O)N[C@H](CO)C(=O)N[C@@H]([C@@H](C)CC(=O)O)C(=O)N[C@@H](CC(=O)c2ccccc2N)C(=O)O[C@@H]1C" in this test.
**A:** no

**Q:** Look up the recorded call for "C#Cc1cccc(Nc2ncnc3cc(OC)c(OCCCCCCC(=O)NO)cc23)c1" in this test.
**A:** yes

**Q:** Look up the recorded call for COc1cc(-c2nn(C3CCC(N4CCN(C(C)=O)CC4)CC3)c3ncnc(N)c23)ccc1NC(=O)c1cc2ccccc2n1C (stereo not given) in this test.
**A:** yes

**Q:** Look up the recorded call for "c1cc(-c2cnn3cc(-c4ccc(OCCN5CCCCC5)cc4)cnc23)ccn1" in this test.
**A:** yes

**Q:** Look up the recorded call for "COc1cccc2nc(-c3cccs3)nc(NN3C(=O)C=C(C)C3=O)c12" in this test.
**A:** yes

**Q:** Look up the recorded call for "CCCCCN(CCC12CC3CC(CC(C3)C1)C2)C(=O)NCCCc1ccncc1" in this test.
**A:** yes

**Q:** Look up the recorded call for "CC(C)(C)NC(=O)[C@H]1CN(Cc2cccnc2)CCN1C[C@@H](O)C[C@@H](Cc1ccccc1)C(=O)N[C@H]1c2ccccc2C[C@H]1O" in this test.
**A:** yes

**Q:** Look up the recorded call for CC1COC2(CCN(c3nc(=O)c4cc(C(F)(F)F)cc([N+](=O)[O-])c4s3)CC2)O1 (stereo not given) in this test.
**A:** no

**Q:** Look up the recorded call for C[C@]12CC[C@H](O)CC1=CCC1C2CC[C@]2(C)C(n3cnc4ccccc43)=CCC12 (stereo not given in full) in this test.
**A:** no

----------
experiment: qHTS of pediatric cancer cell lines to identify multiple opportunities for drug repurposing: Primary screen for A673 cells (AID 1347092); conditions: A673 Ewing sarcoma viability, CellTiter-Glo ATP luminescence, 48 h; series mostly up to 46 µM; note: nearly all actives have a fitted effect of over 45% in size
Results filed as inconclusive are left out. Active and inactive are the calls of the source. Calls follow the shape of the dose curve; as a rule, active = well fitted cell-killing curve with a large enough effect; inconclusive = small, poorly fitted or top-dose-only effect; inactive = no such curve, though single readings can be large or run the other way.
# output must be one of active, inactive

Look over these answered cases.
>  <compound>
CCc1cc2c(cc1N1CCC(N3CCOCC3)CC1)C(C)(C)c1[nH]c3cc(C#N)ccc3c1C2=O

>  <discrete-label>
inactive

$$$$
>  <compound>
O=C(c1ccc(Nc2nccc(-c3cc4ccccc4s3)n2)cc1)N1CCC(N2CCCC2)CC1

>  <discrete-label>
active

$$$$
>  <compound>
COc1cc2c(Oc3ccc(NC(=O)C4(C(=O)Nc5ccc(F)cc5)CC4)cc3F)ccnc2cc1OCCCN1CCOCC1

>  <discrete-label>
active

$$$$
>  <compound>
COc1ccc2c(c1)CC[C@@H](CN(C)CC(=O)O)[C@H]2c1ccccc1

>  <discrete-label>
active

$$$$
>  <compound>
CNc1nccc(-c2cccnc2Oc2cc(C(=O)Nc3cccc(C(F)(F)F)c3)ccc2C)n1

>  <discrete-label>
active

$$$$
>  <compound>
Cc1cnc(-c2cnc(NCCNc3ccc(C#N)cn3)nc2-c2ccc(Cl)cc2Cl)[nH]1

>  <discrete-label>
active

$$$$
>  <compound>
O=c1[nH]c(=O)n(C2CCCO2)cc1F (centres undefined)

>  <discrete-label>
inactive

$$$$
>  <compound>
CC1(C)CC(=O)c2c(C(F)(F)F)nn(-c3ccc(C(N)=O)c(NC4CCC(OC(=O)CN)CC4)c3)c2C1 (centres undefined)

>  <discrete-label>
active

$$$$

**Q:** Look up the recorded call for "Cc1ccc(C(=O)Nc2cccc(C(F)(F)F)c2)cc1-c1ccc2nc(NCCN3CCOCC3)ncc2c1" in this test.
**A:** active

**Q:** Look up the recorded call for "O=C(O)c1ccc2cc(-c3ccc(O)c(C45CC6CC(CC(C6)C4)C5)c3)ccc2c1" in this test.
**A:** active

**Q:** Look up the recorded call for "Nc1ccn([C@@H]2O[C@H](CO)[C@H](O)C2(F)F)c(=O)n1" in this test.
**A:** active

**Q:** Look up the recorded call for "COc1cccc2c(NCc3ccccc3)nc(-n3c(N)nc4ccccc43)nc12" in this test.
**A:** active

**Q:** Look up the recorded call for "Clc1cccc(-c2nnnn2Cc2cccnc2)c1Cl" in this test.
**A:** inactive

**Q:** Look up the recorded call for "CC(C)(C)c1cnc(CSc2cnc(NC(=O)C3CCNCC3)s2)o1" in this test.
**A:** active

**Q:** Look up the recorded call for "CS(=O)(=O)N1CCN(Cc2cc3nc(-c4cccc5[nH]ncc45)nc(N4CCOCC4)c3s2)CC1" in this test.
**A:** active

----------
assay: qHTS of pediatric cancer cell lines to identify multiple opportunities for drug repurposing: Primary screen for Rh18 cells (AID 1347102); conditions: Rh18 rhabdomyosarcoma viability, CellTiter-Glo luminescence, 48 h; series mostly up to 46 µM; note: nearly all actives have a fitted effect of over 65% in size
Inconclusive results are not listed. Calls of active or inactive are those of the source. Calls follow the shape of the dose curve; as a rule, active = well fitted cell-killing curve with a large enough effect; inconclusive = small, poorly fitted or top-dose-only effect; inactive = flat fitted curve, though single readings scatter.
# output must be one of Y = active, N = inactive

>  <molecule>
CC[C@@]1(O)C(=O)OCc2c1cc1n(c2=O)Cc2cc3cc(O)ccc3nc2-1

>  <discrete-label>
Y

$$$$
>  <molecule>
COc1ccc(CC2SC(=O)NC2=O)cc1C(=O)NCc1ccc(C(F)(F)F)cc1 (centres undefined)

>  <discrete-label>
N

$$$$
>  <molecule>
CCOC(=O)C1=C(C)NC2=C(C(=O)CC(C)(C)C2)C1c1ccc(-c2ccccc2)cc1 (centres undefined)

>  <discrete-label>
Y

$$$$
>  <molecule>
Cc1nc(Nc2n[nH]c3c2CN(C(=O)N[C@H](CN(C)C)c2ccccc2)C3(C)C)c2sccc2n1

>  <discrete-label>
Y

$$$$

**Q:** Look up the recorded call for "COCCn1c2c([n+](Cc3cnccn3)c1C)C(=O)c1ccccc1C2=O" in this test.
**A:** Y

**Q:** Look up the recorded call for "COc1cc2c(cc1-c1c(C)noc1C)ncc1[nH]c(=O)n([C@H](C)c3ccccn3)c12" in this test.
**A:** Y

**Q:** Look up the recorded call for "Cn1c(=O)n(-c2ccc(C(C)(C)C#N)cc2)c2c3cc(-c4cnc5ccccc5c4)ccc3ncc21" in this test.
**A:** Y

**Q:** Look up the recorded call for "COc1cc2c(Oc3ccc4[nH]c(C)cc4c3F)ncnc2cc1OCCCN1CCCC1" in this test.
**A:** Y

**Q:** Look up the recorded call for "C=CCn1c(=O)c2cnc(Nc3ccc(N4CCN(C)CC4)cc3)nc2n1-c1cccc(C(C)(C)O)n1" in this test.
**A:** Y

----------
Test: Quantitative High-Throughput drug screen in 47 multiple myeloma cell lines against the NCATS MIPE library collection: H1112_PLB cell viability assay (AID 1918967; note: nearly all actives have a fitted effect of over 30% in size)
Details: H1112 myeloma cells viability, ATP luminescence, 48 h; series mostly up to 45.8 µM
Text: PI: Beverly A. Mock Ph.D. Laboratory of Cancer Biology and Genetics, Center for Cancer Research, National Cancer Institute, National Institute of Health, Bethesda, Maryland […] 5; Detector; 425V; Luminescence; Viewlux PerkinElmer. […] 1. […] Briefly, the corresponding myeloma cell lines were screened in 1,536-well plates with 500 cells, 5-uL per well for inhibition of cell viability (assessed by measuring ATP levels with CellTiterGlo). […]
Records with an inconclusive call do not appear. The source made the active and inactive calls. Calls follow the shape of the dose curve; as a rule, active = well fitted cell-killing curve with a large enough effect; inconclusive = small, poorly fitted or top-dose-only effect, or effect the other way; inactive = no such curve, though single readings can be large or run the other way.
# output must be one of 1.0 (active), 0.0 (inactive)

Look over these answered cases.
>  <compound>
CCN(CC)CCNC(=O)c1ccc2nc(-c3ccccc3)c(-c3ccc(CN4CCC(n5c(=O)[nH]c6ccccc65)CC4)cc3)nc2c1

>  <discrete-label>
1.0

$$$$
>  <compound>
CNC(=O)c1ccc(N2C(=S)N(c3cnc(C#N)c(C(F)(F)F)c3)C(=O)C23CCC3)cc1F

>  <discrete-label>
1.0

$$$$
>  <compound>
CCC1=C[C@@H]2CN(C1)Cc1c([nH]c3ccccc13)[C@@](C(=O)OC)(c1cc3c(cc1OC)N(C)[C@@H]1[C@@](O)(C(=O)OC)[C@H](OC(C)=O)[C@]4(CC)C=CCN5CC[C@]31[C@@H]54)C2

>  <discrete-label>
1.0

$$$$

**Q:** Look up the recorded call for "COc1cccc2c(NCc3ccccc3)nc(-n3c(N)nc4ccccc43)nc12" in this test.
**A:** 1.0

**Q:** Look up the recorded call for Cn1c2cc(S(C)=O)sc2c2cnn(Cc3cccc(N)c3)c(=O)c21 (configuration not stated) in this test.
**A:** 0.0

**Q:** Look up the recorded call for "NC(=O)Nc1cc(-c2cccc(F)c2)sc1C(=O)N[C@H]1CCCNC1" in this test.
**A:** 1.0

**Q:** Look up the recorded call for "CC1=C(CO)C(=O)O[C@@H]([C@@H](C)[C@H]2CC[C@H]3[C@@H]4C[C@H]5O[C@]56[C@@H](O)C=CC(=O)[C@]6(C)[C@@H]4CC[C@]23C)C1" in this test.
**A:** 1.0
